CTLA4 MFI at 33.3 nM values by entry
# target-system: huCTLA4 (Homo sapiens, UniProt P16410)
# Sequence (P16410 36-223): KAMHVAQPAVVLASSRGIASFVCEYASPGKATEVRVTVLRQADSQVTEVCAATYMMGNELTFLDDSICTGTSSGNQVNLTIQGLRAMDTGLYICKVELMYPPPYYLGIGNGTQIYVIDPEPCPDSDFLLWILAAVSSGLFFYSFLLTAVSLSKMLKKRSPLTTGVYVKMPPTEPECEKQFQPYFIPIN
# assay-overview: Flow binding to CHO cells stably expressing CTLA4
# Design: huCTLA4 and huPD-L1, full-length mammalian surface expression constructs were generated; expressed in transfected cells; host or cells: CHO cells, lentiviral transduction, sorted to >98% purity
# conditions: Table E20; CHO cells stably expressing CTLA4; 33.3 nM
Answer with the value's number alone.

{"columns": ["molecule", "metric-name", "recorded-number"],
 "data": [
  ["A26E/E35D/V68M/D90G (protein) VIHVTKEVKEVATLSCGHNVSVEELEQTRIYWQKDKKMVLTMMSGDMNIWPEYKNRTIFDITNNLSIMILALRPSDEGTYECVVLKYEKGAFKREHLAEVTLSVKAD", "CTLA4 MFI at 33.3 nM", 13879],
  ["A26E/M47L/V68M/D90G (protein) VIHVTKEVKEVATLSCGHNVSVEELEQTRIYWQKEKKMVLTMMSGDLNIWPEYKNRTIFDITNNLSIMILALRPSDEGTYECVVLKYEKGAFKREHLAEVTLSVKAD", "CTLA4 MFI at 33.3 nM", 21900]
]}

Request: Quick one: CTLA4 MFI at 33.3 nM of H18Y/M47L/V68M/D90G (protein) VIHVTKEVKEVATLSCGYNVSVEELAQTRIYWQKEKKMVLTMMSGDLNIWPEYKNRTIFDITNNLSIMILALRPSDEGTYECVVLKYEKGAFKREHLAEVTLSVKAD ?
Response: 19006

Request: What value of CTLA4 MFI at 33.3 nM has been recorded for this entry: M47L/V68M/A71G/D90G (protein) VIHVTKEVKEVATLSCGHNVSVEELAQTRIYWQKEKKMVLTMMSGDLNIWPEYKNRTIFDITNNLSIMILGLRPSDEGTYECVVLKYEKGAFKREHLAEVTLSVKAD
Response: 17418

Measured values drawn from patent US20220177587A1 for this set.
